This collection of values is drawn from PubChem BioAssay (NCI).

Tested on: SR leukemia
assay: NCI tumour cell line growth inhibition, 48 h; in the data active = GI50 below about 0.43 µM; inactive = the rest
Use one of these outcomes when replying: active, inactive

// below: answered compounds
INSERT INTO assay_data (compound, discrete_label) VALUES
  ('CC(=O)OC1Oc2cc(C)c(C)cc2-c2oc(=O)c(-c3ccc(F)cc3)cc21 (configuration not stated)', 'inactive'),
  ('O=C(NCCNc1nccc(-c2c(-c3ccc(F)cc3)nc3sccn23)n1)c1ccccc1', 'inactive');

stdin: Hi team, can someone confirm the assay call for `COc1cccc(Cn2c(-c3nonc3NC(C)=O)nc3ccccc32)c1` ?
stdout: inactive

stdin: Any idea what this test logged for `COc1cc(/C=C2\C(=O)N(c3ccccc3)c3ccccc32)cc(OC)c1OC` ?
stdout: inactive

stdin: I would be grateful if you could indicate the recorded call for CSC1=Nc2c(c(C)c(C)n2COC(CO)CO)C2=NC(=O)CC(C)N12 (configuration not stated) .
stdout: inactive

stdin: Field: outcome | Entry: `NC1=CC(=O)c2nc3ccccc3c3ccnc1c23`
stdout: inactive

stdin: Look up the recorded call for `CC1(C)N=C(N)N=C(N)N1c1cccc(CCCCOc2ccccc2)c1` in this test.
stdout: active

stdin: // return assay outcome for `O=C(O)c1cccc2cccc(C(=O)O)c12.[Hg]`
stdout: inactive

---

Test system: PC-3 prostate
assay: NCI tumour cell line growth inhibition, 48 h
Kindly state TGI for each of the entries shown.
Answers are plain numbers, in µM.

INSERT INTO results (structure_smiles_string, assay_target, unit_info, recorded_number) VALUES
  ('O=C1N=NC(=O)N1c1cc(C(F)(F)F)cc(C(F)(F)F)c1', 'PC-3 prostate', 'µM', 12.8);

Next up:
stdin: Please supply the value of reported TGI for the item `CNCCCNC1(c2cc3ccccc3s2)CCCCC1`
stdout: 21.5

---

Tested on: UO-31 renal
assay: NCI tumour cell line growth inhibition, 48 h
reported endpoint: TGI

Quick request: TGI for each listed item, please.
1. O=C(O)c1c[nH]c2c(OCc3ccccc3)c3ccccc3c(O)c2c1=O
2. O=C(CN1C(=O)S/C(=C\C(Cl)=C\c2ccccc2)C1=O)NCCc1ccc(O)cc1
3. O=C1CC[C@H](c2ccc(O)c3c2C(=O)[C@@H]2O[C@@H]2C3=O)c2cccc(O)c21
4. CC1=NN(c2cccc(Cl)c2)C(=N/c2nc3ccccc3s2)/C1=C\c1cccs1
5. C/C=C1/CN2CCC34c5ccccc5N(C)C23C2CC1C4(C(=O)OC)C(O)O2 (stereo not drawn)
6. CCC1c2[nH]c3ccccc3c2C[C@H]2C(=O)NC(CCCCNC(=O)OC(C)(C)C)C(=O)N12 (stereo partly drawn)
7. CCCC1=C(C(=O)OCC)C(c2ccccc2OC)C(C#N)=C(N)O1 (stereo not drawn)

stdout:
["> 100 µM", "3.31 µM", "3.16 µM", "> 100 µM", "> 100 µM", "> 100 µM", "> 100 µM"]

Batch lookup, TGI per entry.
1. CCC1CC(C)=CCN1S(=O)(=O)c1ccc(C)cc1 (stereo not drawn)
2. CC(=O)OC[C@@]1(C)[C@@H]2[C@@H]3[C@@]4(CO[C@]3(C)C(=O)[C@@]3(O)C[C@H](C)[C@H](OC(C)=O)[C@@H]3[C@H]4OC(C)=O)[C@H](OC(=O)c3ccccc3)C[C@@H]21
3. O=C1CCC(N2Cc3c(C#CCCCNC(=O)c4cc5c(o4)C(=O)c4ccccc4C5=O)cccc3C2=O)C(=O)N1 (stereo not drawn)
4. CC1C2(C)OC(=N)C(C#N)(C(C)O2)C1(C#N)C#N (stereo not drawn)
5. COc1cc([C@@H]2c3cc4c(cc3[C@@H](OC3OC5COC(C)OC5C(OC(=O)CN5CCN(C)CC5)C3OC(=O)CN3CCN(C)CC3)C3COC(=O)[C@@H]32)OCO4)cc(OC)c1OC(=O)CN1CCN(C)CC1 (stereo partly drawn)
6. CCOC(=O)N/N=C(\Cc1ccc([N+](=O)[O-])cc1)OCC
7. COc1cc(-n2cnc(-c3ccc(Cl)cc3)c2)cc(OC)c1OC
8. COc1cc(Nc2nc3cc(C(F)(F)F)ccc3nc2-c2ccccc2)cc(OC)c1OC

stdout:
["66.6 µM", "> 100 µM", "36.1 µM", "> 100 µM", "> 100 µM", "> 100 µM", "40.5 µM", "> 100 µM"]

I need TGI for every entry listed below, if you could help.
1. CC[C@@H]1CC[C@@H]2[C@H](CC[C@]3(C)[C@@H](O)CC[C@@H]23)[C@H]1CO
2. COc1ccccc1C(N)c1ccccc1 (stereo not drawn)
3. CC(C)NC(=O)OCc1c(COC(=O)NC(C)C)c(-c2ccc(Cl)c(Cl)c2)n2c1CCC2

stdout:
1: > 100 µM; 2: > 100 µM; 3: 63.5 µM

---

Tested on: NCI-H23 lung
assay: NCI tumour cell line growth inhibition, 48 h; in the data active means GI50 below about 0.43 µM; inactive means the rest
// allowed return values: active, inactive

These solved cases illustrate the format of a correct answer.
INSERT INTO assay_data (compound, discrete_label) VALUES
  ('CSC1=Nc2c(c(C)c(C)n2COC(CO)CO)C2=NC(=O)CC(C)N12 (stereo not given)', 'inactive'),
  ('COc1cc(C2CC(c3ccccc3)=NN2C(C)=O)cc(OC)c1OC (stereo not given)', 'inactive'),
  ('Cc1nn(-c2ccccc2)c2nc3c(nc12)C1=NCCN1C(c1ccc(Cl)cc1)N3 (stereo not given)', 'inactive');

stdin: Per the assay record, what outcome was assigned to `O=C(O)c1cccc2cccc(C(=O)O)c12.[Hg]` ?
stdout: inactive

stdin: // outcome(item) with item = `Cn1ccnc1C(=O)/C=C/c1ccc(CC(=O)Nc2ccc(F)cc2)cc1`
stdout: inactive

stdin: Any idea what this test logged for O=C1CCC(N2Cc3c(C#CCCCNC(=O)c4cc5c(o4)C(=O)c4ccccc4C5=O)cccc3C2=O)C(=O)N1 (stereo not given) ?
stdout: inactive

stdin: How was `O=C(O)c1c[nH]c2c(OCc3ccccc3)c3ccccc3c(O)c2c1=O` classified in this test?
stdout: inactive

stdin: Outcome logged for `O=C1/C(=C/c2ccccc2F)CN(C(=O)C(Cl)Cl)C/C1=C\c1ccccc1F` in this assay:
stdout: active

stdin: What outcome does the record of this test show for `Cc1ccc(-c2nc(N)c(C#N)c3c2CCOc2c-3ccc3ccccc23)cc1` ?
stdout: inactive

stdin: Hey, what did the test say about OCC1OC(n2cnc3c2NC=NC[C@H]3O)CC1O (stereo not given in full) ?
stdout: inactive

---

System: M14 melanoma
assay: NCI tumour cell line growth inhibition, 48 h
reported endpoint: TGI (µM)
Answers are plain numbers, in µM.

INSERT INTO assay_data (compound, unit_info, recorded_number) VALUES
  ('CCOC(=O)c1c[nH]cc1-c1cn(S(=O)(=O)c2ccccc2)cc1C', 'µM', 44.3),
  ('CCC1c2[nH]c3ccccc3c2C[C@H]2C(=O)NC(CCCCNC(=O)OC(C)(C)C)C(=O)N12 (some centres undefined)', 'µM', 40.9),
  ('CN(C)CCNC1=CC(=O)c2nc3ccccc3c3ccnc1c23', 'µM', 21.6);

Quick request: TGI for each listed item, please.
1. Cc1[nH]nc2ccc3nc(-c4ccc5[nH]ncc5c4)c4c(c3c12)CCCC4
2. N#CCCOCN(CO)c1nc(N(CO)COCCC#N)nc(N(CO)COCCC#N)n1
3. O=C1CC[C@H](c2ccc(O)c3c2C(=O)[C@@H]2O[C@@H]2C3=O)c2cccc(O)c21

stdout:
13.3
45.1
4.09

For each of the compounds below, note its TGI.
1. C=C(Br)C(C)(Br)CCC(Br)C(C)(C)Br (centres undefined)
2. COCCN(CCOC)C(=O)COc1c2cc(C(C)(C)C)cc1Cc1cc(C(C)(C)C)cc(c1OCC(=O)N(CCOC)CCOC)Cc1cc(C(C)(C)C)cc(c1OCC(=O)N(CCOC)CCOC)Cc1cc(C(C)(C)C)cc(c1OCC(=O)N(CCOC)CCOC)Cc1cc(C(C)(C)C)cc(c1OCC(=O)N(CCOC)CCOC)C2
3. CN=C(N)/N=C(\N)Nc1cc2ccccc2c2ccccc12
4. N#C/C(=C1C=C/C(=N\O)C(Cl)=C\1)c1ccccc1

stdout:
[61.3, 13, 33.4, 14.2]

---

I'd appreciate it if you could supply GI50 values for the items below.
Test system: MDA-MB-435

INSERT INTO measurements (structure_smiles_string, assay_target, result) VALUES
  ('CCN(CC)CCCCNc1ncc2cc(-c3cc(OC)cc(OC)c3)c(NC(=O)NC(C)(C)C)nc2n1', 'MDA-MB-435', '4.87 µM'),
  ('COc1ccc2c(c1)/C(=C\c1c(Cl)n(C)c3ccccc13)C(=O)N2', 'MDA-MB-435', '0.286 µM');

I need GI50 for every entry listed below, if you could help.
1. Nc1ccc(-c2nc3ccccc3o2)cc1S
2. COc1ccc(-c2nc(N3CCOCC3)c3sc(CN(C)c4ncc(C(=O)NO)cn4)cc3n2)cn1
3. Cc1c(-c2nnc(-c3ccc(F)cc3)o2)nnn1-c1ccnc2c(C(F)(F)F)cccc12

stdout:
17.8 µM
< 0.01 µM
77.6 µM
